- tested.target: Chromo domain-containing protein 1 (Saccharomyces cerevisiae (strain ATCC 204508 / S288c) (Baker's yeast)) (UniProt P32657)
- Sequence (P32657 whole entry, the tested form may be a part): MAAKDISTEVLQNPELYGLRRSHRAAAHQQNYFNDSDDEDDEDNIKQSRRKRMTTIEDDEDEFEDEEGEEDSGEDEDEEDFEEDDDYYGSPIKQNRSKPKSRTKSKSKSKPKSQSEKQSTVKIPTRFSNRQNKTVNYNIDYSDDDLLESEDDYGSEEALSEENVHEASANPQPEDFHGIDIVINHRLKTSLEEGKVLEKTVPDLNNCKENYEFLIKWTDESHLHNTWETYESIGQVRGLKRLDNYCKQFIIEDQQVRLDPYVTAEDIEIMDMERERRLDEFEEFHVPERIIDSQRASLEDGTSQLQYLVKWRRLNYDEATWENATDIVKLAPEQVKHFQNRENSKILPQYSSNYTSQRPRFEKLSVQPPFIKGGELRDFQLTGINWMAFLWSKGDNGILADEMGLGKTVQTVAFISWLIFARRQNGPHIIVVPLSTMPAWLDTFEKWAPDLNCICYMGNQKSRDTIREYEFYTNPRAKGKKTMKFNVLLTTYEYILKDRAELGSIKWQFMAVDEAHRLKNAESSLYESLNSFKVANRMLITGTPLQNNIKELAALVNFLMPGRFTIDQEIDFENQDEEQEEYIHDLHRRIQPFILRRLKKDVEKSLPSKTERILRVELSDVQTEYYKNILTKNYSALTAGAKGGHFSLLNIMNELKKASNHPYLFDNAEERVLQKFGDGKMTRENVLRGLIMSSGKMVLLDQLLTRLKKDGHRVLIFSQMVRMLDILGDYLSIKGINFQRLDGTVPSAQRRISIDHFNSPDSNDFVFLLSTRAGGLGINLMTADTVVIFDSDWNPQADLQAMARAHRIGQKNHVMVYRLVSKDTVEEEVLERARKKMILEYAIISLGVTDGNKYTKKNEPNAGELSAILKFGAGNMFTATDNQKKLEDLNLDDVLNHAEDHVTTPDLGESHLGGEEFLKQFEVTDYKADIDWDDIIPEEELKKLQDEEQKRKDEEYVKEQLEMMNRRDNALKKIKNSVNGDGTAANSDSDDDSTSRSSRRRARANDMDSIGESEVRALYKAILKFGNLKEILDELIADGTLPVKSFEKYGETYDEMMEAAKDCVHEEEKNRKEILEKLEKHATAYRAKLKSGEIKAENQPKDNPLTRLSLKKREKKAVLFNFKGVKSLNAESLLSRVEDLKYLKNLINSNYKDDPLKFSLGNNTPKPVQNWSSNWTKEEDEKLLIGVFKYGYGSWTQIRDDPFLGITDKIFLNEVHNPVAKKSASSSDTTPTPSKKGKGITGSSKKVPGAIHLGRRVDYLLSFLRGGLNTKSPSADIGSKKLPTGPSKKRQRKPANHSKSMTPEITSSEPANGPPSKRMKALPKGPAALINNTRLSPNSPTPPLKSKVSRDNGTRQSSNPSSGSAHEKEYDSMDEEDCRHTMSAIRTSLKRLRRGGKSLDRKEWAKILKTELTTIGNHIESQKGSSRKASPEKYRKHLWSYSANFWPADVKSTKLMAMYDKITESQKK
- method.description: ScCHD-1 Enzyme Inhibition Assay
- Assay type: functional
- Set-up: scale not given: in the data most compounds retested in dose-response had high values
- measurement.setup: 30 µM
Record form. Attribute: Percent Effect. Fill in for each entry.
Give bare numbers, in %.

Reference set, count: 4
Cc1ccc(NC(=O)Nc2cnc(N3CCN(C)CC3)nc2)c(Cl)c1 = -9.57
CSCCC(=O)N1CCCC1c1ccsc1 (stereo not given) = 103
CCOc1cc(C)nc(N2CCN(C(=O)c3ccc[nH]3)CC2)n1 = 1.45
Cc1ccc(N2CCCN(C(=O)CC3CCCO3)CC2)nn1 (stereo not given) = -9.23

Request: Identify Percent Effect associated with the compound CCCc1nnsc1C(=O)NCC1CCN(S(C)(=O)=O)CC1
Result: -6.78
